Origin of measurements: paper PMC7828495

Target: α-glucosidase (Saccharomyces cerevisiae, UniProt P53341)
Construct: purchased Sinopharm Group Chemical Reagent Co. (Shanghai, China)
Sequence (P53341 whole entry): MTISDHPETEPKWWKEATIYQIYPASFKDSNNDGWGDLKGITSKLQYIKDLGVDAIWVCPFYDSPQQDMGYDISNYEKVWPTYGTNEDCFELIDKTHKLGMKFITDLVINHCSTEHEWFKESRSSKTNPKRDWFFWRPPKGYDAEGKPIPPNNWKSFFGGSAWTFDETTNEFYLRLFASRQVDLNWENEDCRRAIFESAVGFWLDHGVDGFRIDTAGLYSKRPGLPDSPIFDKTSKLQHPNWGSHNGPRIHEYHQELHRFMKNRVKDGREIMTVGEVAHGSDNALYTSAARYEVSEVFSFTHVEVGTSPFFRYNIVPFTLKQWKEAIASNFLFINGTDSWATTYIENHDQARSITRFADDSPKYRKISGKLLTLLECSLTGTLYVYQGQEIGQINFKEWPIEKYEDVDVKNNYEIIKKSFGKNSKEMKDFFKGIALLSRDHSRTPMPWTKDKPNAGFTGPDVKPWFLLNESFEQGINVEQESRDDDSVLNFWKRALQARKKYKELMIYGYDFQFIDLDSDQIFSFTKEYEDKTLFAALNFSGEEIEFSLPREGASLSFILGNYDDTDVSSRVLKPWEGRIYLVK
Experiment: α-Glucosidase inhibition assay (PNPG substrate)
Assay type: biochemical
assayMetric: IC50 (µM)
One number for each entry, in µM.

Reported IC50 for O=C(O[C@@H]1Cc2c(O)cc(O)cc2O[C@@H]1c1cc(O)c(O)c(O)c1)c1cc(O)c(O)c(O)c1 [EGCG, (−)-Epigallocatechin gallate] : what is it? 11.5

###

Target: α-glucosidase (Saccharomyces cerevisiae, UniProt P53341)
Construct: purchased Sinopharm Group Chemical Reagent Co. (Shanghai, China)
Assay: α-Glucosidase inhibition assay (PNPG substrate)
Format: biochemical
Settings: 37 °C, PNPG substrate; read-out: IC50 for α-Glucosidase
assayMetric: IC50

Tell me reported IC50 for `CCCCCCCCCCCCCCCC(=O)Oc1c(O)cc([C@H]2Oc3cc(O)cc(O)c3C[C@H]2OC(=O)c2cc(O)c(O)c(O)c2)cc1O` , tested with α-glucosidase (Saccharomyces cerevisiae, UniProt P53341). 220 nM
